Target: UniProt P08173
Sequence (P08173 whole entry): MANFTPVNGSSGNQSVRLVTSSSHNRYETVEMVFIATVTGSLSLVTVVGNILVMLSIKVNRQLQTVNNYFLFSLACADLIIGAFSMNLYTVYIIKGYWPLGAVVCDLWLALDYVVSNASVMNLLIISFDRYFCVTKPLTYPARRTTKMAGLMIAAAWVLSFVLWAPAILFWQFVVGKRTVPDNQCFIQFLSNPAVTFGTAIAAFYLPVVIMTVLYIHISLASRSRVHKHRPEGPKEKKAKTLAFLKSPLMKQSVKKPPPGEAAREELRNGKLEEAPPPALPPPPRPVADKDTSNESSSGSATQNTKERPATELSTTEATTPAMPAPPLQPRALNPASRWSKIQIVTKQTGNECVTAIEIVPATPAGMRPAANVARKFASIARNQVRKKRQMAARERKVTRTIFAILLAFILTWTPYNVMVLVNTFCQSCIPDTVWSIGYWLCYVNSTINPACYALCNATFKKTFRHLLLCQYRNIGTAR
Assay: M4 cell-based functional assay (calcium mobilization)
Parameters: expressed in transfected cells
Details: CHO-K1 hM4-Gqi5 cells, calcium flux, increase in EC20 acetylcholine response
Reported log10 of EC50 values for a set of molecules
The base-10 logarithm of EC50, taken with EC50 in nM, is what appears here.

In [3]: df
Out[3]:
                                   molecule   target_entity  recorded_endpoint  value_observed
0  Cc1cc(C#N)cnc1N1CCc2ncsc2C1 [Compound 17]  UniProt P08173      log10 of EC50            3.50
1  Cc1cc2c(N3CCc4nc(Br)sc4C3)ncnc2s1 [Compound 24]  UniProt P08173      log10 of EC50            1.70
2  Cc1cc2nccnc2nc1N1CCc2nc(-c3ccnn3C)sc2C1 [Compound 59]  UniProt P08173      log10 of EC50            3.44
3  Cc1ccc2ncnc(N3CCc4nc(Br)sc4C3)c2c1 [Compound 30]  UniProt P08173      log10 of EC50            2.17
4  Cc1cc2nc(C(=O)N3CC(C)(F)C3)cc(=O)n2nc1N1CCc2nc(Br)sc2C1 [Compound 45]  UniProt P08173      log10 of EC50            2.88
5  CCOC(=O)c1nc2c(s1)CN(c1nc3nccnc3cc1C)CC2 [Compound 58]  UniProt P08173      log10 of EC50            3.26

Provide log10 of EC50, recorded with UniProt P08173, of Cc1c(C#N)nnc(N2CCc3nc(Br)sc3C2)c1C [Compound 10]
2.06

Give measured log10 of EC50 for Cc1cc2nccnc2nc1N1CCc2nc(-c3cccs3)sc2C1 [Compound 56] (UniProt P08173).
3.38

Provide log10 of EC50, recorded with UniProt P08173, of Cc1cc(C#N)cnc1N1CCc2nc(C3CC3)sc2C1 [Compound 16]
2.01

Give log10 of EC50 only, for Cc1cc2nccnc2nc1N1CCc2nc(C(C)(C)C)sc2C1 [Compound 65] , using UniProt P08173 data.
3.28

Check UniProt P08173 data and give log10 of EC50 for Cc1c(C#N)nnc(N2CCc3nc(C4CC4)sc3C2)c1C [Compound 12] .
2.21

State log10 of EC50 (UniProt P08173) of Cc1c(N2CCc3nc(C4CC4)sc3C2)nc2nn(CC3CC3)c(=O)n2c1C [Compound 75] .
1.18

Specify log10 of EC50 for Cc1cc2nc(C(=O)N3CC4(COC4)C3)cc(=O)n2nc1N1CCc2nc(Br)sc2C1 [Compound 47] , system UniProt P08173.
3.29

Give log10 of EC50 for this entry on UniProt P08173: Brc1nc2c(s1)CN(c1ncnc3ccsc13)CC2 [Compound 26]
2.63

Give log10 of EC50 for [2H]C([2H])([2H])c1nc2c(s1)CN(c1ncc(C#N)cc1C)CC2 [Compound 20] tested on UniProt P08173.
2.39

Consider the molecule COc1ccc2ncnc(N3CCc4nc(Br)sc4C3)c2c1 [Compound 31] tested on UniProt P08173; state its log10 of EC50.
2.75
